# Tested on: HEK-293T
# assay-protocol: Multiplex assay against HEK293T;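 also: share of the cells with healthy nuclei that show this phenotype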
# Type: toxicity, cell-based
# condition: human, 24 h, 10 µM, compound concentration 10 uM, replicate 2
Short version: Population Tubulin-Different-Phenotype (%) at least 10% is y, less is n.

• CC(C)CC(=O)Nc1[nH]nc2c1CN(C(=O)C1CCN(C)CC1)C2(C)C = n
• C[C@]12CC[C@@H]3c4ccc(O)cc4CC[C@H]3[C@@H]1CC[C@@H]2O = y
• O=C(c1cc2c(cc1F)OC(c1ccc(F)cc1)(c1ccc(Cl)cc1Cl)O2)N1CCOCC1 (configuration not stated) = y
• COC(=O)C1=C(C)NC(C)=C(C(=O)OCCCN2CCC(c3ccccc3)(c3ccccc3)CC2)[C@H]1c1cccc([N+](=O)[O-])c1 = n
• COc1ccc(-c2ccc3ncc4c(c3c2)n(-c2ccc(N3CCNCC3)c(C(F)(F)F)c2)c(=O)n4C)cn1.O=C(O)/C=C\C(=O)O = y
• CCc1nn(CCCN2CCN(c3cccc(Cl)c3)CC2)c(=O)n1CCOc1ccccc1.Cl [NEFAZODONE HYDROCHLORIDE] = y
• CN1CCN(Cc2ccc(Nc3ncc(Cl)c(Nc4ccccc4S(=O)(=O)N(C)C)n3)cc2)CC1 = y
